Assay: PK of compound of Formula (Ia) after single subcutaneous dose of solution formulations in beagle dogs
Format: in vivo
Conditions: male, beagle, dog, plasma, sc, 12 mg/kg, beagle dogs, SC 12 mg/kg, 400 mg/mL solution W (5.00% ethanol, 1.57% poloxamer 188), 1680 h, animals #1-#3
PROPERTY: concentration at 1680 h (nM)
Answer with a number only, understood to be in nM.

Problem: State, in one line, measured concentration at 1680 h of `CC(C)(C#Cc1ccc(-c2ccc(Cl)c3c(NS(C)(=O)=O)nn(CC(F)(F)F)c23)c([C@H](Cc2cc(F)cc(F)c2)NC(=O)Cn2nc(C(F)(F)F)c3c2C(F)(F)[C@@H]2C[C@H]32)n1)S(C)(=O)=O`
Solution: 28.8
